Attribution: paper PMC9146797

Assay: CCK-8 cytotoxicity assay
Format: cell-based
Settings: C6 and BEAS-2B cells, PTP 0-200 µg/mL, CCK-8, absorbance 450 nm, BxPC-3, C6, BEAS-2B cells (Figure S1), read-out: cell viability
Where no end group is shown, it is not given here.
measured.metric: viability at 24 h

[[record]]
substance = "KTLLPTP [PTP]"
measured_metric = "viability at 24 h"
recorded_measurement = "> 90%"

